The reported numbers originate from patent US20170313769A1.

Reported values of IC50 (pM) ISRE Neutralization for individual entries
molecular target: Human IFNβ (mature human interferon beta) (human, UniProt P01574 22-187); test: cell-based or functional assay
Sequence (P01574 22-187): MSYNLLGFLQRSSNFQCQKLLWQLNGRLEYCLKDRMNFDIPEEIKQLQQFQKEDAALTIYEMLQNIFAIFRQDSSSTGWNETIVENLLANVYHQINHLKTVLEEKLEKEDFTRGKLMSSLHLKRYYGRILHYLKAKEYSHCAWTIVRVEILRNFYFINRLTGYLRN

{"columns": ["BINDER", "IC50 (pM) ISRE Neutralization"],
 "data": [
  ["CTI-AF1 (antibody, human IgG1, kappa, V domains shown, Humanized IgG1; The C-terminal K of the heavy chain is printed as optional, '(K)'; also called anti-IFNβ antibody; humanized IgG1 antibody against interferon beta) VH: QVQLVQSGAEVKKPGSSVKVSCKASGYTFSRYWMHWVRQAPGQGLEWMGHIDPSDSYTYYNQKFKGRVTITADESTSTAYMELSSLRSEDTAVYYCARWDYGNLLFEYWGQGTLVTVSS VL: DIQMTQSPSSLSASVGDRVTITCRTSQDIGNYLNWYQQKPGKAFKLLIYSTSRLHSGVPSRFSGSGSGTDFTLTISSLQPEDFATYYCQQGIILPITFGGGTKVEIKR", 2],
  ["CTI-AF9 (antibody, human IgG1, kappa, V domains shown) VH: QVQLVQSGAEVKKPGSSVKVSCKASGYTFSRYWMHWVRQAPGQGLEWMGHIDPSDSYTYYNQKFKGRVTITADESTSTAYMELSSLRSEDTAVYYCARWDYGNLLFEYWGQGTLVTVSS VL: DIQMTQSPSSLSASVGDRVTITCRTSQDISNYLNWYQQKPGKAFKLLIFSTSRLHSGVPSRFSGSGSGTDFTLTISSLQPEDFATYYCQQSTILPLTFGGGTKVEIKR", 75],
  ["CTI-AF16 (antibody, human IgG1, kappa, V domains shown) VH: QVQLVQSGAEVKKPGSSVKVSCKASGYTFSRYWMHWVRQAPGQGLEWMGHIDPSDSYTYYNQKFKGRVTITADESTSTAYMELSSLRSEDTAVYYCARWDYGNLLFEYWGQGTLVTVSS VL: DIQMTQSPSSLSASVGDRVTITCRTSQDISNYLNWYQQKPGKAFKLLIYTTSRLRSGVPSRFSGSGSGTDFTLTISSLQPEDFATYYCQQGIILPITFGGGTKVEIKR", 14],
  ["CTI-AF8 (antibody, human IgG1, kappa, V domains shown) VH: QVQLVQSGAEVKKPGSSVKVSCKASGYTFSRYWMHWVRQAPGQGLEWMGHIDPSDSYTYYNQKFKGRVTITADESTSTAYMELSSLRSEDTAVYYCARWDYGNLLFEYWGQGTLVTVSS VL: DIQMTQSPSSLSASVGDRVTITCRTSQDIGNYLNWYQQKPGKAFKLLIYSTSRLHSGVPSRFSGSGSGTDFTLTISSLQPEDFATYYCQQSTILPLTFGGGTKVEIKR", 460]
]}
